Target: Prothrombin (Homo sapiens, UniProt P00734)
Test: Thrombin 1536 HTS Dose Response Confirmation. [Related pubchem assays: 1046 (Thrombin 1536 HTS; hits were confirmed in this assay)]
Assay type: functional
The source made the active and inactive calls.
In this section, each of the molecules is paired with its reported IC50.

Example results:
C=CCOc1ccc(C(=O)C2=C(O)C(=O)N(CCCOC)C2c2ccncc2)cc1 (centres undefined); > 50 µM (inconclusive)
O=C(O)c1ccccc1SCC(=O)N1CCOCC1; > 50 µM (not active)
CCc1ccc(S(=O)(=O)ON2C(=O)c3ccccc3C2=O)cc1; 1.55 µM (active)

Need IC50, item `CCn1ncc(Br)c1C(=O)Nc1cc([N+](=O)[O-])ccc1C` > 50 µM (not active)

---

In this section, each of the compounds is paired with its reported EC50.
Biological target: Trace amine-associated receptor 1 (Homo sapiens)
Sequence (Q96RJ0 whole entry): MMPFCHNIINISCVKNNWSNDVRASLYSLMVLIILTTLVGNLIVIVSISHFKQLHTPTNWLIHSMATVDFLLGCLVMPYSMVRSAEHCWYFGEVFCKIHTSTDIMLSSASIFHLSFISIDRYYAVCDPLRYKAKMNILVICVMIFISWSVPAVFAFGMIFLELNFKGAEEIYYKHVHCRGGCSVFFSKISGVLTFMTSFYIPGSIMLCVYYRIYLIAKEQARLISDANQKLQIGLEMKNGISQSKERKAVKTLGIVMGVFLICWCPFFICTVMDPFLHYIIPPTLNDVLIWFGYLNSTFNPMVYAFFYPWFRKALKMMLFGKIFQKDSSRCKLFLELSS
Assay: Fluorescence-based cell-based high throughput dose response assay to identify agonists of the human trace amine associated receptor 1 (TAAR1).
Format: functional
Activity calls are given as the source filed them.

NS(=O)(=O)c1ccc(CCNC(=O)CNCCc2ccccc2)cc1; 1.07 µM (active)

Need EC50, item `COc1cccc(C(=O)N[C@H](C(=O)N2CCC[C@H]2C(=O)NCCc2ccccc2Cl)C2CCCCC2)c1` 6.72 µM (active)

Need EC50, item CCOC(=O)C(NCCc1ccccc1)(NC(=O)CC)C(F)(F)F (centres undefined) 1.81 µM (active)

Need EC50, item `Cc1cc(N(C)C)nc(Nc2ccccc2)n1` 0.128 µM (active)

---

Test: Luminescence Cell-Based Dose Response HTS to Identify Activators of Luciferase Translation or Activity in H4 […] Cells. [Related pubchem assays: 1829 (Project Summary), 1814 (Primary HTS)]
Format: functional
Active and inactive are the calls of the source.
quantity.measured: EC50

CN1C2CCC1/C(=C\c1ccccc1)C(=O)/C2=C\c1ccccc1; > 120 µM (not active)
Cc1ccc(S(=O)(=O)N/N=C2/CC(c3ccccc3)Oc3ccccc32)cc1[N+](=O)[O-] (configuration not stated); > 120 µM (not active)
Cc1ccccc1/C=C1\CCCc2ccccc2C1=O; 0.328 µM (active)
C=CCSc1ncc(-c2ccccc2)cn1; 16 µM (active)
O=C(CN1C(=O)NC2(CCCCCC2)C1=O)c1ccc2c(c1)OCCO2; 0.676 µM (active)

Need EC50, item `Cc1nn(-c2ccccc2)c(Cl)c1/C=N\NC(=O)c1cnccn1` 14 µM (active)

Need EC50, item `COc1ccc(/C=N/Nc2ncnc3sc4c(c23)CCCC4)cc1O` 6.72 µM (active)

---

Target: DNA repair protein RAD52 homolog (Homo sapiens)
Sequence (P43351 whole entry): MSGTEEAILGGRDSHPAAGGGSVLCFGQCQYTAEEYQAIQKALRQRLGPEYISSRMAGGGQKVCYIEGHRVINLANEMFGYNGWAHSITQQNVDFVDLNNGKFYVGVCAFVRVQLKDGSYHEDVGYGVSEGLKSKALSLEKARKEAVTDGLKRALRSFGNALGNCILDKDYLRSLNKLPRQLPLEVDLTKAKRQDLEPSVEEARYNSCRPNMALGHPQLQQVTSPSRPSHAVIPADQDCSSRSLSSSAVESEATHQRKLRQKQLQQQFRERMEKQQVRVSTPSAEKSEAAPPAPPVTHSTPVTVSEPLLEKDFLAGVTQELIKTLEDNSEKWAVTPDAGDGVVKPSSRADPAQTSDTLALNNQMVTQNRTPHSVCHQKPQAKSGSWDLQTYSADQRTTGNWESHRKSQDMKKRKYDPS
Format: functional, biochemical
Calls of active or inactive are those of the source.
quantity.measured: AC50

Example results:
CCN1CCN(c2ccc(/N=C/c3ccccc3O)cc2)CC1; 2230 nM (active)
CC(=O)Nc1cc(-c2cccc(C(=O)NCCN(C)C)c2)cn2c(-c3ccccc3)cnc12; 4010 nM (active)
COc1cc2c(ccc3c4cc(OC)c(OC)cc4c[n+](C)c23)cc1O [FAGARONINE]; < 244 nM (active)

Need AC50, item `Cc1cccn2c(=O)c3cc(C(N)=S)c(=N)n(CCCN4CCOCC4)c3nc12` 3430 nM (active)

---

The next entries give measured AC50 for Cytochrome P450 3A4 (Homo sapiens, UniProt P08684).

CCS(=O)(=O)N1CCC(C(=O)NCCCOC)CC1; 0.0562 µM (inconclusive)
CC(=N)/C(C#N)=C(/O)COc1ncnc2ccc(Br)cc12; 17.8 µM (inconclusive)
Cc1ccc(C)c(-n2c(Cc3cc(O)nc(O)n3)nnc2SCC(=O)NCC2CCCO2)c1 (stereo not given); 31.6 µM (inconclusive)
COc1cccc(Cn2c(=O)c(-c3ccc(Cl)cc3)nc3cnc(N4CCNCC4)nc32)c1; 15.8 µM (inconclusive)
COc1ccc2[nH]c3c(c2c1)CCN=C3C; 5.01 µM (inconclusive)

// map `COC(=O)c1ccc(N2CCN(c3ccccc3)CC2)c(NC(=O)C2CC2)c1` to recorded AC50 (system: Cytochrome P450 3A4 (Homo sapiens, UniProt P08684)) 25.1 µM (inconclusive)

// map `CN(C(=O)CC(NC(=O)c1ccccc1)(c1ccccc1)c1ccccc1)c1ccccc1` to recorded AC50 (system: Cytochrome P450 3A4 (Homo sapiens, UniProt P08684)) 0.708 µM (inconclusive)

// map `COc1ccc(NC(=O)N2CCCC3(CCN(C(=O)c4cnccn4)CC3)C2)cc1` to recorded AC50 (system: Cytochrome P450 3A4 (Homo sapiens, UniProt P08684)) 15.8 µM (inconclusive)

// map `CC(C)c1ccc(/C=N/NC(=O)CN(c2cccc(Cl)c2Cl)S(C)(=O)=O)cc1` to recorded AC50 (system: Cytochrome P450 3A4 (Homo sapiens, UniProt P08684)) 28.2 µM (inconclusive)

// map Cc1ccc(SC(C)C(=O)NCc2cccnc2)cc1 (stereo not given) to recorded AC50 (system: Cytochrome P450 3A4 (Homo sapiens, UniProt P08684)) 1 µM (inconclusive)

---

Biological target: UniProt P49327
Sequence (P49327 whole entry): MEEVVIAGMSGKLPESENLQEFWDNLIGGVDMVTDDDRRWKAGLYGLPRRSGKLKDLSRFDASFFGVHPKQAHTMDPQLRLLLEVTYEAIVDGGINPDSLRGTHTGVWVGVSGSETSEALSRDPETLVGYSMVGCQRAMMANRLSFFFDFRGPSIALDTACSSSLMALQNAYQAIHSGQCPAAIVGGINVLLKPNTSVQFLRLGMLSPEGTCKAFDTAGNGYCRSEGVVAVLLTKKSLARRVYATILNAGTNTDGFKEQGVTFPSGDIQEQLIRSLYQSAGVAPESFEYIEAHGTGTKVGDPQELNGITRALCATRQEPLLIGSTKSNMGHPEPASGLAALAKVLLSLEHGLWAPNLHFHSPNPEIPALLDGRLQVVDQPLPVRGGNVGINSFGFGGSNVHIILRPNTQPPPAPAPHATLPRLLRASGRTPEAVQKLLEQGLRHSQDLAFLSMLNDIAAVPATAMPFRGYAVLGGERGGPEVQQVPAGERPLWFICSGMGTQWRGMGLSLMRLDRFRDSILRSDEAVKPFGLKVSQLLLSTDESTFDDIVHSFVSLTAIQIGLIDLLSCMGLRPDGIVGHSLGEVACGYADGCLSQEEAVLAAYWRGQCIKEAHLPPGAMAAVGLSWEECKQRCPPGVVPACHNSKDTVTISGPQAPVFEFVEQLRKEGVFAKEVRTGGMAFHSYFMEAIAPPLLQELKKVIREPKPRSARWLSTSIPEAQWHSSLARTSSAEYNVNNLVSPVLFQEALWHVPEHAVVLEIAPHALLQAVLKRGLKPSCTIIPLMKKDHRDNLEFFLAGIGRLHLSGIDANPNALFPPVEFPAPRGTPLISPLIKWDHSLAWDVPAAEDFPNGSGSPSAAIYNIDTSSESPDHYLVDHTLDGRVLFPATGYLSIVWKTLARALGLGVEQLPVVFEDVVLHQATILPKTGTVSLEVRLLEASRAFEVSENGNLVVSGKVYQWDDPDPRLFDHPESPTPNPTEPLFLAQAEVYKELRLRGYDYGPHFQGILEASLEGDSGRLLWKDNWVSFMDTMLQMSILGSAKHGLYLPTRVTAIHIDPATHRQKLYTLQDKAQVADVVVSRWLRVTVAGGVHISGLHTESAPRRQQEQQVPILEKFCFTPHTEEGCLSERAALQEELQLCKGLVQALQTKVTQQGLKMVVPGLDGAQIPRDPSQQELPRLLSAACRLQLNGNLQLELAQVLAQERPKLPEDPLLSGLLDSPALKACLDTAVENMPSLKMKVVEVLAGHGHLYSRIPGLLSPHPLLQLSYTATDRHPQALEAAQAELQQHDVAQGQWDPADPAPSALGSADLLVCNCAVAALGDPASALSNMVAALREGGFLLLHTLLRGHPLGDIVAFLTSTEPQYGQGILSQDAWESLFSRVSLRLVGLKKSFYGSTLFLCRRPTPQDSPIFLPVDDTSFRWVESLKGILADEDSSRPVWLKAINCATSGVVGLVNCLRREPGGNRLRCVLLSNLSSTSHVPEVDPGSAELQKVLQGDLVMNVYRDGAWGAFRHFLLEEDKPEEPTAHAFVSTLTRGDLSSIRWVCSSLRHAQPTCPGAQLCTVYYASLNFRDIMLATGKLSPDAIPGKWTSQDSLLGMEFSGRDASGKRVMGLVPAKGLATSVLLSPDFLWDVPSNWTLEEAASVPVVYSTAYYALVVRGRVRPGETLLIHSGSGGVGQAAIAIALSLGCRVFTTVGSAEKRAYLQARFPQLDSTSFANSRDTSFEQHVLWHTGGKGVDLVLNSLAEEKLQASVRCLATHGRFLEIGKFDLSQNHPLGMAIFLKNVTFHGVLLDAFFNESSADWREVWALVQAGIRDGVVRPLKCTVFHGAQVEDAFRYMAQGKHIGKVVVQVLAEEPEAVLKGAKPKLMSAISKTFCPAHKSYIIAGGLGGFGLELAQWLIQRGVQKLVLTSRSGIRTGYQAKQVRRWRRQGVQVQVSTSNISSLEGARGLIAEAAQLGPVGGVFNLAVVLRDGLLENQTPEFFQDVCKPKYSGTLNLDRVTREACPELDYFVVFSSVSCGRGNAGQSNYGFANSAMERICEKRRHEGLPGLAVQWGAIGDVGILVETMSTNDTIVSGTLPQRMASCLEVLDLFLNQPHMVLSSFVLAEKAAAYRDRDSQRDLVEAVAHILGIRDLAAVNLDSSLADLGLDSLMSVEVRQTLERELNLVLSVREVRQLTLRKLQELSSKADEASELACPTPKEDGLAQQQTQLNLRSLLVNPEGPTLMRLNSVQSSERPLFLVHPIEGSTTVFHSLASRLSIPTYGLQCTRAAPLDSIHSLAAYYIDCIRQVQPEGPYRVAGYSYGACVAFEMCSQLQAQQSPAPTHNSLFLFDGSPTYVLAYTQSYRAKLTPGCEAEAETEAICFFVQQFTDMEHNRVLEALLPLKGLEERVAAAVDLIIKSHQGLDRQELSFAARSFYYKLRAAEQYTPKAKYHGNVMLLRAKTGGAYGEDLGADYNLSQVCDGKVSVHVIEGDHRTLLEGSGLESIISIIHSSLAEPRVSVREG
Experiment: inhibition of human FAS-TE enzyme activity – biochemical, endpoint fluorescence intensity, uHTS hits, dose response (AID 624327);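 note: fluorescence from hydrolysis of an O-methyl fluorescein acyl ester substrate by the enzyme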
Format: functional
The source made the active and inactive calls.
// classify into active, inactive

Reference set (5 entries):
CCc1ccc(S(=O)(=O)ON2C(=O)c3ccccc3C2=O)cc1; active
C=CCOC(=O)COc1ccc2c(C)c(CC)c(=O)oc2c1; active
CCCCCN(CCCCC)C(=O)C(CCC(=O)O)NC(=O)c1ccc(Cl)c(Cl)c1 (stereo not drawn) [LORGLUMIDE SODIUM]; active
COc1ccc(C(=O)N/C(=C\c2cn(S(=O)(=O)N(C)C)c3ccccc23)C(=O)N2CCCC2)cc1; active
Cc1ccc(-n2[nH]c(C)c(/C=N/Nc3ccc([N+](=O)[O-])cc3[N+](=O)[O-])c2=O)cc1C; inactive

Please let me know the test result on file for `CC(C)c1ccc(/C=N/NC(=O)CN(c2cccc(Cl)c2Cl)S(C)(=O)=O)cc1` . active

Please let me know the test result on file for `CC(C)(C)c1cc(Br)c(O)c(N=Nc2ccc(S(=O)(=O)N3CCOCC3)cc2)c1` . active

Please let me know the test result on file for `COc1ccc(C(=O)OCC(=O)NCCCc2ccccc2)cc1[N+](=O)[O-]` . active

---

Target: Replicative DNA helicase DnaB (Mycobacterium tuberculosis)
Sequence (P9WMR3 whole entry): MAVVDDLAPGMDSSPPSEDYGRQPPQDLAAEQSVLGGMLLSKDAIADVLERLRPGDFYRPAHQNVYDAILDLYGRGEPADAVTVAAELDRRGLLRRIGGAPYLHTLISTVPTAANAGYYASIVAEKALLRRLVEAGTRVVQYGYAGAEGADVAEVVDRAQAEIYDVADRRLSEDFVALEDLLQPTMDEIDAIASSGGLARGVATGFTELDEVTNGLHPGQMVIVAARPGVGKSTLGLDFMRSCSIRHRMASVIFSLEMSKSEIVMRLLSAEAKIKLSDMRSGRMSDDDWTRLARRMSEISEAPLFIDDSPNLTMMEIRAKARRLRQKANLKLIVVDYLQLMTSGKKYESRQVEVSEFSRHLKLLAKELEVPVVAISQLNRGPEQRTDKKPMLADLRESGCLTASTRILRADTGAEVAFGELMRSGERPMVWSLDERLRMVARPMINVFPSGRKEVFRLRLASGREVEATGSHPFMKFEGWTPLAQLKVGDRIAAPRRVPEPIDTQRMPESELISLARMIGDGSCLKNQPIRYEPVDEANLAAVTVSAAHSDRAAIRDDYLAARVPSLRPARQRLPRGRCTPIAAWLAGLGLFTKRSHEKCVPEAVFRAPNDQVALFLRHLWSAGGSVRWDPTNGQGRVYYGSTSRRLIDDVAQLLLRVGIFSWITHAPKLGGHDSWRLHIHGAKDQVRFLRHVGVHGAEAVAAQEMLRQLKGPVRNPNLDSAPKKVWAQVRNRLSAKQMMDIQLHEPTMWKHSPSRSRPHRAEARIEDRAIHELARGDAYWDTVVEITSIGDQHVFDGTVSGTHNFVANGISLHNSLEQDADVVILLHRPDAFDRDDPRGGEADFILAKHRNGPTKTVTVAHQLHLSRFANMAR
Experiment: DnaB intein splicing inhibitors, dose response, biochemical, cell-free fluorescence (AID 449749)
Assay type: functional
Active and inactive are the calls of the source.
// classify into active, inactive

COc1cc(/C=N/NC(=O)c2ccc(F)cc2)ccc1OC(=O)c1ccco1; active

Please let me know the test result on file for `CCSc1c([N+](=O)[O-])c(=O)n(-c2ccccc2)c2ccccc12` . active

Please let me know the test result on file for `COc1cccc(/C=C/C(=O)c2ccc(NS(=O)(=O)c3ccc(C)cc3)cc2)c1` . active

Please let me know the test result on file for `CC1(C)c2ssc(=S)c2-c2ccccc2N1C(=O)CSC1=NCCS1` . active

Please let me know the test result on file for `N#C[C@H]1[C@H](c2ccccc2)[C@](C#N)(C(=O)c2ccccc2)[C@@H]2C=Cc3ccccc3N21` . inactive
